# System: gephE
# ASSAY PROTOCOL: µSPOT peptide microarray binding assay with recombinant gephE
# EXPERIMENTAL SETUP: µSPOT peptide microarray, GlyRβ full positional scan, recombinant gephE; intensity normalised to wild-type sequence DLRSNDFSIVGSLPR (=1)
Classify: True when gephE Binding Intensity [norm.] is strictly less than 1 norm.; False when gephE Binding Intensity [norm.] is not.

For orientation, consider the following solved cases.
residue_string="DLRSNDFSIFGSLPR [GlyRβ_Full_Positional_Scan_187, GlyR β 414-428 variant V423F]" discrete_label=True
residue_string="DLTSNDFSIVGSLPR [GlyRβ_Full_Positional_Scan_056]" discrete_label=True
residue_string="DLRSNDHSIVGSLPR [GlyRβ_Full_Positional_Scan_133, GlyR β 414-428 variant F420H]" discrete_label=True

Next item in the queue.
Given the entry CLRSNDFSIVGSLPR [GlyRβ_Full_Positional_Scan_017] , would its reported gephE Binding Intensity [norm.] be below 1 norm.? False

====

# Test system: gephE
# ASSAY PROTOCOL: µSPOT peptide microarray binding assay with recombinant gephE
# EXPERIMENTAL SETUP: µSPOT peptide microarray, GlyRβ full positional scan, recombinant gephE; intensity normalised to wild-type sequence DLRSNDFSIVGSLPR (=1)
READOUT NAME: gephE Binding Intensity [norm.] (norm.)
Kindly answer with a numeric value in norm., unit omitted.

Examples with answers:
residue_string="DLRSNDFSICGSLPR [GlyRβ_Full_Positional_Scan_197, GlyR β 414-428 variant V423C]" unit_label=norm. quantitative_result=0.45
residue_string="DLRSNDFSIKGSLPR [GlyRβ_Full_Positional_Scan_194, GlyR β 414-428 variant V423K]" unit_label=norm. quantitative_result=0.5
residue_string="DLYSNDFSIVGSLPR [GlyRβ_Full_Positional_Scan_049]" unit_label=norm. quantitative_result=0.96
residue_string="DLDSNDFSIVGSLPR [GlyRβ_Full_Positional_Scan_050]" unit_label=norm. quantitative_result=1.09
residue_string="DLRSNPFSIVGSLPR [GlyRβ_Full_Positional_Scan_105]" unit_label=norm. quantitative_result=0.89

Dear colleague, please send me the reported gephE Binding Intensity [norm.] for DLRSNDFSIVISLPR [GlyRβ_Full_Positional_Scan_203, GlyR β 414-428 variant G424I] when you can. 0.48

Please supply the value of reported gephE Binding Intensity [norm.] for the item DLHSNDFSIVGSLPR [GlyRβ_Full_Positional_Scan_053] 1.01

Item DLRSNDFSIVDSLPR [GlyRβ_Full_Positional_Scan_210, GlyR β 414-428 variant G424D] : provide gephE Binding Intensity [norm.] 0.22

Report gephE Binding Intensity [norm.], nothing else, for this sequence: DLRSHDFSIVGSLPR [GlyRβ_Full_Positional_Scan_093] 0.9

Supply reported gephE Binding Intensity [norm.] belonging to this sequence: DLMSNDFSIVGSLPR [GlyRβ_Full_Positional_Scan_058] 0.77

Supply gephE Binding Intensity [norm.] value. Item: DLRSNDFSIVLSLPR [GlyRβ_Full_Positional_Scan_204, GlyR β 414-428 variant G424L] 0.57

Write down gephE Binding Intensity [norm.] measured for item DLKSNDFSIVGSLPR [GlyRβ_Full_Positional_Scan_054] 1.01

Given DLRSNDQSIVGSLPR [GlyRβ_Full_Positional_Scan_140, GlyR β 414-428 variant F420Q] , respond with its gephE Binding Intensity [norm.]. 0.48

Name the recorded gephE Binding Intensity [norm.] of the item DLRSNAFSIVGSLPR [GlyRβ_Full_Positional_Scan_101] in your answer. 0.98

Please report the measured gephE Binding Intensity [norm.] for DLRSNDFSAVGSLPR [GlyRβ_Full_Positional_Scan_161, GlyR β 414-428 variant I422A] 0.56

Determine its reported gephE Binding Intensity [norm.]: DLRSNNFSIVGSLPR [GlyRβ_Full_Positional_Scan_119] 0.89

Give reported gephE Binding Intensity [norm.] value for DLRSNDFSPVGSLPR [GlyRβ_Full_Positional_Scan_165, GlyR β 414-428 variant I422P] 0.64

Please list gephE Binding Intensity [norm.] recorded for the sequence RLRSNDFSIVGSLPR [GlyRβ_Full_Positional_Scan_012] 0.98

====

The sequences listed here are annotated with their Native geph Binding Intensity [norm.].
# Test system: native geph
# ASSAY PROTOCOL: µSPOT peptide microarray binding assay with native geph from mouse brain lysate
# EXPERIMENTAL SETUP: overlapping GABAAR α3 peptide library on µSPOT array; 6% mouse brain lysate; normalized to most prominent spot; n = 2 array-internal duplicate
Express your answer in norm., writing the number without its unit.

Please review the following examples before continuing.
residue_string="AAPSASSTPTAIASPKATYV [GABAAR α3 residues 420-439, µSpot library]" quantitative_result=0.080
residue_string="PEALEMKKKTPAAPTKKNTT [GABAAR α3 residues 375-394, µSpot library]" quantitative_result=0.071
residue_string="YVQDSPAETKTYNSVSKVDK [GABAAR α3 residues 438-457, µSpot library]" quantitative_result=0.058
residue_string="WEGKKVPEALEMKKKTPAAP [GABAAR α3 residues 369-388, µSpot library]" quantitative_result=0.105
residue_string="KDTEFSTISKSAAAPSASST [GABAAR α3 residues 408-427, µSpot library]" quantitative_result=0.136
residue_string="KKKTPAAPTKKNTTFNIVGT [GABAAR α3 residues 381-400, µSpot library]" quantitative_result=0.115
residue_string="NLAKDTEFSTISKSAAAPSA [GABAAR α3 residues 405-424, µSpot library]" quantitative_result=0.122

// switching to the query sequence
Give recorded Native geph Binding Intensity [norm.]. KKNTTFNIVGTTYPINLAKD [GABAAR α3 residues 390-409, µSpot library] 0.243

====

Reported gephE Binding Intensity [norm.] is given for each of the following sequences.
# System: gephE
# ASSAY PROTOCOL: µSPOT peptide microarray binding assay with recombinant gephE
# EXPERIMENTAL SETUP: µSPOT peptide microarray, GlyRβ full positional scan, recombinant gephE; intensity normalised to wild-type sequence DLRSNDFSIVGSLPR (=1)
Please state the value followed by its unit.

residue_string="DLRSNGFSIVGSLPR [GlyRβ_Full_Positional_Scan_102]" result="1 norm."
residue_string="DLRSNDTSIVGSLPR [GlyRβ_Full_Positional_Scan_136, GlyR β 414-428 variant F420T]" result="0.47 norm."
residue_string="DLRSNDFAIVGSLPR [GlyRβ_Full_Positional_Scan_141, GlyR β 414-428 variant S421A]" result="0.55 norm."
residue_string="DLRSNDLSIVGSLPR [GlyRβ_Full_Positional_Scan_124, GlyR β 414-428 variant F420L]" result="0.58 norm."
residue_string="ALRSNDFSIVGSLPR [GlyRβ_Full_Positional_Scan_001]" result="1.06 norm."
residue_string="DLRSWDFSIVGSLPR [GlyRβ_Full_Positional_Scan_088]" result="0.86 norm."
residue_string="DLRSNDFIIVGSLPR [GlyRβ_Full_Positional_Scan_143, GlyR β 414-428 variant S421I]" result="0.4 norm."

Now turn to the next sequence.
Report measured gephE Binding Intensity [norm.]; entry is DLRSNDFSIPGSLPR [GlyRβ_Full_Positional_Scan_185, GlyR β 414-428 variant V423P] 0.41 norm.

====

# Tested on: native geph
# ASSAY PROTOCOL: µSPOT peptide microarray binding assay with native geph from mouse brain lysate
# EXPERIMENTAL SETUP: µSPOT full positional scan of GlyRβ 15-mer DLRSNDFSIVGSLPR; native geph; intensity normalised to wild-type sequence (= 1)
The following sequences are shown together with reported Native geph Binding Intensity [norm.] values.
Your answer is read as norm., so omit the unit and give the number.

residue_string="DLRSNDFSIVGSLPT [GlyRβ_Full_Positional_Scan_296]" readout_name="Native geph Binding Intensity [norm.]" quantitative_result=1.56
residue_string="DLRSNDFSIVGSLNR [GlyRβ_Full_Positional_Scan_279]" readout_name="Native geph Binding Intensity [norm.]" quantitative_result=0.67
residue_string="DLRSNDFSIVGSQPR [GlyRβ_Full_Positional_Scan_260]" readout_name="Native geph Binding Intensity [norm.]" quantitative_result=0.8
residue_string="DLRSNDFSIVGSGPR [GlyRβ_Full_Positional_Scan_242]" readout_name="Native geph Binding Intensity [norm.]" quantitative_result=0.66

Next:
Retrieve Native geph Binding Intensity [norm.] measured for DLRSNDFSIVGSLPA [GlyRβ_Full_Positional_Scan_281] and print it. 0.81

====

# System: FL-geph
# ASSAY PROTOCOL: µSPOT peptide microarray binding assay with full-length geph
# EXPERIMENTAL SETUP: µSPOT peptide microarray, GlyRβ full positional scan, intensity normalised to wild-type sequence DLRSNDFSIVGSLPR (=1)
READOUT NAME: Fl-geph Binding Intensity [norm.] (norm.)
// return numeric value only (unit: norm., not printed)

// known answers, use as guide
residue_string="DLRSNTFSIVGSLPR [GlyRβ_Full_Positional_Scan_116]" unit_label=norm. quantitative_result=0.97
residue_string="DLRSNDFIIVGSLPR [GlyRβ_Full_Positional_Scan_143, GlyR β 414-428 variant S421I]" unit_label=norm. quantitative_result=0.41
residue_string="DLRSNDFSIVGSLPR [GlyRβ_Full_Positional_Scan_099]" unit_label=norm. quantitative_result=1
residue_string="DYRSNDFSIVGSLPR [GlyRβ_Full_Positional_Scan_029]" unit_label=norm. quantitative_result=0.84
residue_string="DLLSNDFSIVGSLPR [GlyRβ_Full_Positional_Scan_044]" unit_label=norm. quantitative_result=1.28

Report Fl-geph Binding Intensity [norm.] for RLRSNDFSIVGSLPR [GlyRβ_Full_Positional_Scan_012] 0.99

Identify measured Fl-geph Binding Intensity [norm.] associated with DLASNDFSIVGSLPR [GlyRβ_Full_Positional_Scan_041] 1.13
